In this section we review reported kon values for a set of binders.
- system: canine FcRn (FcRn large subunit with canine beta-2-microglobulin) (canine)
- experiment: SPR pH 6.0, IgG coupled to CM5, FcRn 50-800 nM
Form entry: value (M⁻¹ s⁻¹) — number only.

Below are worked cases with known answers.
canine IgGA antibody with wild-type IgGA Fc and the variable domain of Gearing et al. 2013 (antibody, part only; not given: variable domains and light chain, not shown: another chain or arm of the molecule; small tags and cut ends) Fc: VPEPLGGPSVLIFPPKPKDILRITRTPEVTCVVLDLGREDPEVQISWFVDGKEVHTAKTQSREQQFNGTYRVVSVLPIEHQDWLTGKEFKCRVNHIDLPSPIERTISKARGRAHKPSVYVLPPSPKELSSSDTVSITCLIKDFYPPDIDVEWQSNGQQEPERKHRMTPPQLDEDGSYFLYSKLSVDKSRWQQGDPFTCAVMHETLQNHYTDLSLSHSPGK; 31400
anti-NGF canine IgGB antibody, Fc variant N434Y (antibody, part only; not given: Anti-NGF variable domains, not shown: another chain or arm of the molecule) Fc: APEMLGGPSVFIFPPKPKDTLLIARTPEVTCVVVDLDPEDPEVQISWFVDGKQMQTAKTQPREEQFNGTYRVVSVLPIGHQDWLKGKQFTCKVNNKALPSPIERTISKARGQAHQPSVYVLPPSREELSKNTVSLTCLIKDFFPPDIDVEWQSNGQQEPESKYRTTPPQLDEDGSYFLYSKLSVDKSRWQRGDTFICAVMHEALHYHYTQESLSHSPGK; 255000

Query string: Supply recorded kon for anti-NGF canine IgGB antibody, Fc variant N434R (antibody, part only; not given: Anti-NGF variable domains, not shown: another chain or arm of the molecule) Fc: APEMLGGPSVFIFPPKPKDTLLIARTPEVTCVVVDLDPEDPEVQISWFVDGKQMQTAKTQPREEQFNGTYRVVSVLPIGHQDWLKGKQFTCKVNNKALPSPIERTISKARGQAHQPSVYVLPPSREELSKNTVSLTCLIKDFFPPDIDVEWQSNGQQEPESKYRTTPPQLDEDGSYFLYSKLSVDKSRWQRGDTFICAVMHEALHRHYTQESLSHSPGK here.
Result string: 216000
